Some sequences, each annotated with its measured PBM binding z-score.
Tested on: PPARg:RXRa 90nM:30nM, anti-RXR (NR concentration 90 nM, RXRa partner concentration 30 nM)
Assay: PBM binding z-score (relative to random genomic background probes); higher = stronger binding; sequences stand for … in GC…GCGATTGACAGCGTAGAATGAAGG
observed.property: PBM binding z-score

1) CTACCAAAGTGAACAAGGTCGTTGATTACTATTC -0.0383
2) GATACAGGGTCAGCTAGAGGCCAGGGTATGGAAA 2.14
3) CGAACGAGGGCCTGAGTTGATAGCAAATGCCGAT -0.468
4) TCTAATTGGTCACGGAGGTCACACACGACGGGTA 5.06
5) TGAAGGAGGTTAAAGATCAGGGAACGTGGCGTCG 6.03
6) CCTGCCAGGTCATGGTCAGCTAATCTACAGTATG 1.27
7) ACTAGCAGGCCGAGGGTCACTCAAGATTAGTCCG 4.78
8) ACTAGTTGGTCAGCTGAGGTCACCCACAATTCGG 2.01
9) CCGACTGGGGCAGAAGGGTTACCATACCATCCGG 0.389
10) ATCTCTTGGTAAAGTTCAGTGAAAGATCGATAGA 2.65
11) AATACAGCGTCATCGTAGGCCAGAGTACGCACAG -0.519
12) CGTACTAGGTCAAGGACAGTGAATCTCCGCACGC 4.86
13) CAAGACAGGTGAAAGGTAACTCAGTCTGGTACGC 6.08
14) CCTACAGGGCCATCAGGTCATTGATATCAACGTT 0.77
15) GGGACGAGGGCAAAGTTGATAGCATCTGTCGACG 6.62
16) CAAACTAGGTCAAGAGGTCAAGGTCCGCTTCCCG 8.28
17) TCTCGGAGGACACGAAAGGTCATAGCTCGACATC 3.37
18) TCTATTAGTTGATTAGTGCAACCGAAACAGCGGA 2.78
19) CCTATTAGCTGACCATAAGGGCAACCGAAGCTCG -0.184
20) CCGACTGGGGCATAAGGTTACCATCAGCCAGCCC 2.32
21) CCTCGGAGGACAACAGGAGGTCAGATCTGCCAGA -0.22
22) GCTAGCAGGCCATTTGGGTGACTCAATGACGGGC -0.48
23) AATACAGGGTCTTCGTAGGCCAGAGTACGCACAG 0.137
24) CCGACTGGGGCAAAGGTTACCGTACTCAGTACGA 9.91
25) ACTTCCGGGTCAACGAGGTTATAGCACGCGTATA 4.51
26) CCGACTGGGGCTAGGTTACCATAACGCACAGCCA -0.369
27) TCAGACAGGTGAATGTAACTCAGGTACGCAGTCG 2.36
28) TCTTTTAGATCAATAGAGGTTAAGAAAGTGCGCT 2.92
29) GCTTACGGGTCAAAGGTTATACCATGAATAGAAT 10.3
30) TCTTGTAGATCAATAGAGGTGAAGAAAGTGCGCT 2.21
31) TCTCGGAGGACACGAAAGTTCAGAGCTCGACATC 1.81
32) ACTATTAGTTGAGACGATGGCAACCGATAGGTTG -0.0627
33) GTACCAAGGTGGATAGGTCGTTGATGAGTAGGCG 0.026
34) TCTCGGAGGACACGAAGTTCAGAGCTTTCCAGAG 1.76
35) GCGACTGGGGCAAAGCATGTTACCATAAGGTTGG 1.58
36) CTCGAAAGTTCGGTTGAGGTGAGTATACGGATAA 0.125
37) GGAACGAGGGCAAGGTGATAGCAGAGTTTGATGG 1.19
38) CTTACTGGGCCACGAAAGGTCATTGATTCAGTGA 5.7
39) TCTAGCAGGCCAGAGGGCCACTCAAGAGGTACGG 1.71
40) TCTCGGAGCACACGAAAGGTCAGAGCTCGACATC 1.49
41) CGTACTGGGCCAAAAAGGTCATTGATGCCGATAA 3.72
42) ATCTCTAGGTAACAATTTCAGTGAAAGAGAGGAC 0.649
43) TCATATAGGTAATACAGGCGAAAGTCGGCATCTA 3.08
44) AGAATGAGGTTACCAAAGACCAGGGAAACGCTTG 1.86
45) CCAGACAGGTCAAAGGTAACTCAGTCTGGTACGC 8.02
46) CCGACTGGGGCAAAGGTTACCTTACTCAGTACGA 9.81
47) ACTATTAGTTGAGAGGAGGGCAACCGATAGGTTG 0.106
48) CTACCGAGGTGAACAAGGTCGTTGATTACTATTC 0.754
49) GCTAGTTGTTCAGTAAAAGGTCACACACCGGTCG 3.27
50) CTTCCAAGGTCAGAGAGGTCAGTGAATGCCGAGT 2.89
51) TCTATTAGTGGAAGGGCAACCGACGAGTCCGTTT 2.56
